Assay read-out pIC50; system under study: Caspase 3 (Homo sapiens, UniProt P42574).
Sequence (P42574 29-175 limits assumed, species assumed): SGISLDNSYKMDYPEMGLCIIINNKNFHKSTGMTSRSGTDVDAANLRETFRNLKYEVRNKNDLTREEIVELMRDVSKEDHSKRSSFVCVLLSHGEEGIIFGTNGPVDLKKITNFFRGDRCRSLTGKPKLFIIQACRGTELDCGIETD
Sequence (P42574 176-277 limits assumed, species assumed): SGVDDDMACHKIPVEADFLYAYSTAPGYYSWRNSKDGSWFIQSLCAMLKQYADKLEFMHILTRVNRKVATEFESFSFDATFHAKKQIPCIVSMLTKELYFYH
pIC50: −log10 of the molar value.

Worked cases, answers included:
O=C(NCC(CN1CCCC1)C(O)c1ccccc1)c1ccc2c(Cl)c3c(nc2c1)CCCC3 (stereo not shown) [Example 25]
< 3.70
COc1ccc(CN2CCC(CNC(=O)c3ccc4c(Cl)c5c(nc4c3)CCCC5)CC2)cc1 [Example 22]
< 3.70
CN1CCCC1CCNC(=O)c1ccc2c(Cl)c3c(nc2c1)CCCC3 (stereo not shown) [Example 17]
< 3.70

// query Value lookup for pIC50; key = O=C(NCc1cccc(CN2CCCC2)c1)c1ccc2c(Cl)c3c(nc2c1)CCCC3 [Example 18]
// result < 3.70

* * *

- MEASURED ON: USP7 (Homo sapiens, UniProt Q93009)
- Construct: Full-length wild-type human USP7 and its catalytic mutant (cysteine 223 replaced by alanine, C223A) were produced as N-terminally His-tagged fusions; His (N); made in house; host or cells: Spodoptera frugiperda Sf9 (or High Five) insect cells, baculovirus pFastBac-HT-B
- ASSAY REMARKS: USP7 activity assay (Ub-AMC substrate)
- Format: biochemical
- CONDITION SET: Ub-AMC 300 nM, USP7 100 pM, 30 min pre-incubation
REPORTED ENDPOINT: IC50

Worked cases, answers included:
CCN(CC)CCNC(=O)c1ccc2c(Cl)c3c(nc2c1)CCCC3 [Example 26]
30.5 µM
O=C(Nc1cccc(CN2CCCC2)c1)c1ccc2c(Cl)c3c(nc2c1)CCCC3 [Example 19]
8.2 µM
CN1CCCC1CCNC(=O)c1ccc2c(Cl)c3c(nc2c1)CCCC3 (stereo not shown) [Example 17]
13.7 µM
CC1CCCCN1CCCNC(=O)c1ccc2c(Cl)c3c(nc2c1)CCCC3 (stereo not shown) [Example 20]
45.5 µM
O=C(NCc1ccc(CN2CCCC2)cc1)c1ccc2c(Cl)c3c(nc2c1)CCCC3 [Example 21]
16.3 µM
O=C(NCc1cccc(CN2CCCC2)c1)c1ccc2c(Cl)c3c(nc2c1)CCCC3 [Example 18]
18.3 µM

Then there is this compound:
// query Value lookup for IC50; key = CN(C)c1ccc(CN2CCC(CNC(=O)c3ccc4c(Cl)c5c(nc4c3)CCCC5)CC2)cc1 [Example 23]
// result 33.1 µM

* * *

- MEASURED ON: USP7 (Homo sapiens, UniProt Q93009)
- Construct: Full-length wild-type human USP7 and its catalytic mutant (cysteine 223 replaced by alanine, C223A) were produced as N-terminally His-tagged fusions; His (N); made in house; host or cells: Spodoptera frugiperda Sf9 (or High Five) insect cells, baculovirus pFastBac-HT-B
- ASSAY REMARKS: USP7 assay with GST-Ub52-Flag substrate (HTRF)
- Type: biochemical
- CONDITION SET: USP7 200 pM
REPORTED ENDPOINT: IC50 (µM)
Answer with a number only, understood to be in µM.

O=C(NCC1CCN(CCc2ccccc2)CC1)c1ccc2c(Cl)c3c(nc2c1)CCCC3
24.5
CN1CCC(CN2CCN(C(=O)c3ccc4c(Cl)c5c(nc4c3)CCCC5)CC2)CC1
8.5
O=C(NCC1CCN(CCCc2ccccc2)CC1)c1ccc2c(Cl)c3c(nc2c1)CCCC3
16.4

Then there is this compound:
// query Value lookup for IC50; key = CCN1CCC[C@H]1CNC(=O)c1ccc2c(Cl)c3c(nc2c1)CCCC3
// result 25.9

Attribution: patent US9328093B2
